Experiment: Compound toxicity to human cortical neurons in absence of Aβ1-40 (alamarBlue, 3 days)
Type: cell-based
Conditions: human, cortical neurons; no Aβ1-40; 3 days; 390 nM to 100 μM; n=3; ND = not detected at the concentration range used; read-out: TD50 (concentration giving 50% loss of neuronal survival)
Method: Cultures of human cortical or hippocampal neurons were prepared using a modification of the procedure described in P. Seubert et al. (1992), Nature 359:325-327. […] The alamarBlue™ assay incorporated a proprietary fluorometric/colorimetric metabolic indicator (Alamar Biosciences, Inc.). […] Reduction of alamarBlue™ was determined spectrofluorometrically using a Millipore Cytofluor 2350 Scanner (excitation, […]; emission, 590 nm) and CytoCalc™ software (Millipore Corporation). […]
Catalogue of CC50 at 72 h readings, one per entry.
metric_name: CC50 at 72 h (µM)

[
  {
    "cpd_smiles": "COc1ccc2c(c1)CC[C@@H]1[C@@H]2CC[C@]2(C)[C@@H](NCCCCCCN3C(=O)C=CC3=O)CC[C@@H]12",
    "observed_value": 16
  },
  {
    "cpd_smiles": "COc1ccc2c(c1)CC[C@@H]1[C@@H]2CC[C@]2(C)[C@@H](NCCCCCCN3C(=O)CCC3=O)CC[C@@H]12",
    "observed_value": 8
  }
]

---

Catalogue of CC50 at 72 h readings, one per entry.
Assay: Compound toxicity to human cortical neurons in absence of Aβ1-40 (alamarBlue, 3 days)
Assay type: cell-based
Conditions: human, cortical neurons

[
  {
    "compound": "S=C(S)OC1CC2CC1C1CCCC21 (centres unmarked)",
    "CC50 at 72 h (µM)": 35
  },
  {
    "compound": "CCN(CC)CCCC(C)Nc1c2ccc(Cl)cc2nc2ccc(OC)cc12 (centres unmarked)",
    "CC50 at 72 h (µM)": 9
  }
]

---

Catalogue of TD10 (concentration giving 10% loss of neuronal survival) readings, one per entry.
Tested on: human cortical neurons
Experiment: Compound toxicity to human cortical neurons in absence of Aβ1-40 (alamarBlue, 3 days)
Type: cell-based
Details: human, 4320 min
metric_name: TD10 (concentration giving 10% loss of neuronal survival) (µM)

[
  {
    "compound": "CN(C(=O)/C=C/c1ccc(S(C)(=O)=O)cc1)c1ccc(S(=O)(=O)NC2CCCCCC2)cc1",
    "observed_value": 98
  },
  {
    "compound": "CCN(CC)CCCC(C)Nc1c2ccc(Cl)cc2nc2ccc(OC)cc12 (stereo not shown)",
    "observed_value": 6
  },
  {
    "compound": "CN(C(=O)/C=C/c1ccc(C#N)cc1)c1ccc(S(=O)(=O)NC2CCCCCC2)cc1",
    "observed_value": 73
  },
  {
    "compound": "S=C(S)OC1CC2CC1C1CCCC21 (stereo not shown)",
    "observed_value": 13
  }
]
